# Test system: Brain
# assay method text: Antioxidant activity in Wistar rat brain assessed as catalase content
# Type: functional
readout: Activity (µg/mL)

- COc1ccc2c3c1O[C@H]1C[C@@H](OP(=O)(NCCN)N(CCCl)CCCl)C=C[C@@]31CCN(C)C2 (stereo not given in full): 285.48
- COc1ccc2c3c1O[C@H]1C[C@@H](OP(=O)(Oc4ccc([N+](=O)[O-])cc4)SCCO)C=C[C@@]31CCN(C)C2 (stereo not given in full): 288.58
- COc1ccc2c3c1O[C@H]1C[C@@H](OP(=O)(Oc4ccc([N+](=O)[O-])cc4)OP(=O)(O)O)C=C[C@@]31CCN(C)C2 (stereo not given in full): 287.38
- O=C1O[C@H]([C@@H](O)CO)C(O)=C1O: 385.46
- COc1ccc2c3c1O[C@H]1C[C@@H](OP(=O)(OCCO)Oc4ccc([N+](=O)[O-])cc4)C=C[C@@]31CCN(C)C2 (stereo not given in full): 286.43

###

# Test system: Klebsiella pneumoniae
# assay method text: Antibacterial activity against Klebsiella pneumoniae at 1 mg/mL after 18 hrs by disc diffusion assay
# Type: functional
# assay conditions: read-out: IZ
// false (0) strictly below 2 mm in zone of inhibition at 1000 µg/mL; true (1) otherwise

• COc1ccc2c3c1O[C@H]1C[C@@H](OP(=O)(OCCO)N(CCCl)CCCl)C=C[C@@]31CCN(C)C2 (some centres not stated) = false (0)
• COc1ccc2c3c1O[C@H]1C[C@@H](OP(=O)(NCCO)Oc4ccc([N+](=O)[O-])cc4)C=C[C@@]31CCN(C)C2 (some centres not stated) = true (1)
• COc1ccc2c3c1O[C@H]1C[C@@H](OP(=O)(NCCN)N(CCCl)CCCl)C=C[C@@]31CCN(C)C2 (some centres not stated) = true (1)
• O=C(N[C@H](CO)[C@H](O)c1ccc([N+](=O)[O-])cc1)C(Cl)Cl [CHLORAMPHENICOL] = true (1)
• COc1ccc2c3c1O[C@H]1C[C@@H](OP(=O)(NCCN)Oc4ccc([N+](=O)[O-])cc4)C=C[C@@]31CCN(C)C2 (some centres not stated) = true (1)
• COc1ccc2c3c1O[C@H]1C[C@@H](OP(=O)(NCCO)N(CCCl)CCCl)C=C[C@@]31CCN(C)C2 (some centres not stated) = false (0)
• COc1ccc2c3c1O[C@H]1C[C@@H](O)C=C[C@@]31CCN(C)C2 [GALANTAMINE] = false (0)

###

# assay method text: Inhibition of superoxide dismutase in Wistar rat brain
# Format: tissue-based
Quick reference for EC50 among some molecules
readout: EC50

* O=C1O[C@H]([C@@H](O)CO)C(O)=C1O | 0.99 mg/L
* COc1ccc2c3c1O[C@H]1C[C@@H](OP(=O)(OCCO)Oc4ccc([N+](=O)[O-])cc4)C=C[C@@]31CCN(C)C2 (some centres not stated) | 3.28 mg/L
* COc1ccc2c3c1O[C@H]1C[C@@H](OP(=O)(NCCO)Oc4ccc([N+](=O)[O-])cc4)C=C[C@@]31CCN(C)C2 (some centres not stated) | 2.57 mg/L
* COc1ccc2c3c1O[C@H]1C[C@@H](OP(=O)(NCCN)N(CCCl)CCCl)C=C[C@@]31CCN(C)C2 (some centres not stated) | 2.77 mg/L
* COc1ccc2c3c1O[C@H]1C[C@@H](OP(=O)(NCCO)N(CCCl)CCCl)C=C[C@@]31CCN(C)C2 (some centres not stated) | 1.28 mg/L
* COc1ccc2c3c1O[C@H]1C[C@@H](OP(=O)(Oc4ccc([N+](=O)[O-])cc4)OP(=O)(O)O)C=C[C@@]31CCN(C)C2 (some centres not stated) | 2.69 mg/L
* COc1ccc2c3c1O[C@H]1C[C@@H](OP(=O)(SCCO)N(CCCl)CCCl)C=C[C@@]31CCN(C)C2 (some centres not stated) | 1.62 mg/L
* COc1ccc2c3c1O[C@H]1C[C@@H](OP(=O)(OCCO)N(CCCl)CCCl)C=C[C@@]31CCN(C)C2 (some centres not stated) | 1.98 mg/L
* COc1ccc2c3c1O[C@H]1C[C@@H](OP(=O)(OP(=O)(O)O)N(CCCl)CCCl)C=C[C@@]31CCN(C)C2 (some centres not stated) | 1.26 mg/L
* COc1ccc2c3c1O[C@H]1C[C@@H](OP(=O)(NCCN)Oc4ccc([N+](=O)[O-])cc4)C=C[C@@]31CCN(C)C2 (some centres not stated) | 1.91 mg/L
* COc1ccc2c3c1O[C@H]1C[C@@H](OP(=O)(Oc4ccc([N+](=O)[O-])cc4)SCCO)C=C[C@@]31CCN(C)C2 (some centres not stated) | 1.55 mg/L
* COc1ccc2c3c1O[C@H]1C[C@@H](O)C=C[C@@]31CCN(C)C2 | 3.84 mg/L
